System: C. tropicalis
PROTOCOL: Antimycotic activity: Minimum Inhibitory Concentration
Type: cell-based, Candida tropicalis NCPF 3111
TEST CONDITIONS: Candida tropicalis, pH 5.5, C. tropicalis, Day 1; pH 5.5, 37° C., 72 hours; read-out: Minimum Inhibitory Concentrations

[
  {
    "STRUCTURE SMILES STRING": "CCCCCCCCCCCCCC[n+]1c(C)cc(C)n1Cc1ccc([N+](=O)[O-])cc1.[Br-]",
    "MIC [µg/mL]": 5
  },
  {
    "STRUCTURE SMILES STRING": "CCCCCCCCCCCC[n+]1c(C)cc(C)n1Cc1ccc(Cl)cc1Cl.[Br-]",
    "MIC [µg/mL]": 1
  },
  {
    "STRUCTURE SMILES STRING": "CCCCCCCCCCCCCCCCn1ccc[n+]1C",
    "MIC [µg/mL]": 0.5
  },
  {
    "STRUCTURE SMILES STRING": "CCCCCCCCCCCCn1c(C)cc(C)[n+]1C",
    "MIC [µg/mL]": 5
  },
  {
    "STRUCTURE SMILES STRING": "CCCCCCCCCCCCn1ccc[n+]1C",
    "MIC [µg/mL]": 5
  },
  {
    "STRUCTURE SMILES STRING": "CCCCCCCCCCCCCCCCn1c(C)cc(C)[n+]1C",
    "MIC [µg/mL]": 1
  },
  {
    "STRUCTURE SMILES STRING": "C=CCn1c(C)cc(C)[n+]1CCCCCCCCCCCCCCCC.[Br-]",
    "MIC [µg/mL]": 0.5
  },
  {
    "STRUCTURE SMILES STRING": "CCCCCCCCCCCCCCn1ccc[n+]1C",
    "MIC [µg/mL]": 0.5
  },
  {
    "STRUCTURE SMILES STRING": "CCCCCCCCCCCC[n+]1c(C)cc(C)n1Cc1ccc(Cl)cc1.[Br-]",
    "MIC [µg/mL]": 5
  }
]

Each recorded value in this set is attributed to patent US4207326A.
